# Tested on: CCRF-CEM leukemia
# protocol.summary: NCI tumour cell line growth inhibition, 48 h
property.name: TGI (µM)

1. O=C(Nc1ccc(Cl)cc1)c1cc(NCc2cc(O)ccc2O)ccc1O; 6.79
2. COc1ccc(NC(=O)c2ccc(C(F)(F)F)nc2Nc2ccc(Cl)cc2C)cc1Cl; 17.4
3. CCOC(=O)c1ccc(Nc2nc3ccccc3n3cccc23)cc1; 0.108
4. COc1ccc(-c2oc3ncnc(N)c3c2-c2ccc(NC(=O)Nc3cc(C(F)(F)F)ccc3F)cc2)cc1; 11.8
5. Cn1cnc(SC2=CC(=O)C=C3S[C@H]4C[C@@]23c2c(c(O)c3c5c2=NCCC=5C=N3)N4)c1CC(N)C(=O)O (some centres not stated); 44.1
6. COc1ccc2c(c1)C(=O)/C(=C/c1ccc(O)cc1)O2; 3.54
7. O=c1oc2ccc(F)cc2c(=O)n1-c1ccc(I)cc1F; 52
8. CCCCNC(=O)Oc1ccc(/C(=C(\C)c2ccc(OC)cc2)c2ccc(OCCN3CCCCC3)cc2)cc1; 9.78

====

# Lookup of reported TGI keyed by entry
# System: MDA-N
# protocol.summary: NCI tumour cell line growth inhibition, 48 h
property.name: TGI

1. O=C1NCN(c2ccccc2)C12CCN(CCCN1CCN(CCOC(c3ccccc3)c3ccccc3)CC1)CC2; 2.12 µM
2. NS(=O)(=O)c1ccc(N=Nc2ccc(O)cc2)cc1; > 100 µM
3. Cc1ccc(F)c2[nH]c(-c3ccccc3)cc(=O)c12; > 100 µM
4. Cc1cn(CCCCOC(=O)NC(CCCN=C(N)N)C(=O)O)c(=O)[nH]c1=O (stereo not drawn); > 100 µM
5. CC[C@@]1(O)C(=O)OCc2c1cc1n(c2=O)Cc2c-1nc1ccccc1c2/C=N\NC(=O)C(N)Cc1ccc(O)cc1 (stereo partly drawn); > 31.6 µM
6. CC1(C)CC[C@]2(C)[C@@H](O)C[C@]3(C)C(=CC[C@@H]4[C@@]5(C)CC[C@H](O)C(C)(C)[C@@H]5CC[C@]43C)[C@@H]2C1; > 100 µM
7. CCCCCCCCCCCCCC(=O)OCC(CCS(=O)(=O)O[C@H]1CC[C@@]2(C)C(=CC[C@@H]3C2CC[C@]2(C)C(=O)CCC32)C1)OC(=O)CCCCCCCCCCCCC (stereo partly drawn); > 100 µM
8. O=C(O)c1nn(-c2ccc(Cl)cc2)c2c1C(=O)c1ccccc1C2=O; > 100 µM

====

# System: IGROV1 ovarian
# protocol.summary: NCI tumour cell line growth inhibition, 48 h
# Lookup of reported TGI keyed by entry
property.name: TGI

1. COC(=O)Cc1cccc2c(=O)c(S(=O)(=O)NC(=O)Nc3ccc(Cl)cc3)c(-c3ccccc3)oc12; > 100 µM
2. CCCCN(C)CC(C(C)=O)C(c1ccccc1)c1c(O)c2ccccc2oc1=O (stereo not given); > 100 µM
3. CCN(CC)CCOCCOCC1(c2ccc(Cl)c(Cl)c2)CCCCC1; 23.8 µM
4. CCCCCCCCCCCCCC(=O)OCC(CCS(=O)(=O)O[C@H]1CC[C@@]2(C)C(=CC[C@@H]3C2CC[C@]2(C)C(=O)CCC32)C1)OC(=O)CCCCCCCCCCCCC (stereo not given in full); > 100 µM
5. C/C(CC(O)(C(F)(F)F)C(F)(F)F)=N\NC(N)=S; > 10 µM

====

# Tested on: CAKI-1 renal
# protocol.summary: NCI tumour cell line growth inhibition, 48 h
property.name: TGI (µM)

1. CC(=O)CCc1ccc(Oc2c3ccccc3nc3occc23)cc1; 42
2. Cc1cc(-c2nc3ccc(F)cc3s2)ccc1NC(=O)C(N)CCCCN (stereo not given); 24.9
3. COc1nc2ccc(Cl)c(C(O)c3ccccc3)c2nc1OC (stereo not given); 45.3
4. COc1cc(OCCCN2CCCC2)ccc1Nc1ncc(Cl)c(Nc2ccccc2P(C)(C)=O)n1; 5.64
5. Oc1c(CN2CCCCC2)ccc2cccnc12; 3.23
6. Cc1ccccc1SC(/C=C/NNC1=NC(c2ccccc2)C(c2ccccc2)=NN1)c1ccccc1 (stereo not given); 30
7. CCN(CC)CCOCCOCC1(c2ccc(Cl)c(Cl)c2)CCCCC1; 22.9
8. COc1ccc(C/C=C(\C)CCO)cc1; 94.3
9. COC(=O)Cc1cccc2c(=O)c(S(=O)(=O)NC(=O)Nc3ccc(Cl)cc3)c(-c3ccccc3)oc12; 74.3
10. N/C(=C\c1ccc(/C=C(\NC(=O)c2ccccc2)c2nc3c([nH]2)C(=O)c2ccccc2C3=O)cc1)c1nc2c([nH]1)C(=O)c1ccccc1C2=O; 60.7
11. CC(C)(C)c1ccc(NS(=O)(=O)c2ccc(N)cc2)cc1; 99.4

====

# Test system: HOP-92 NSCLC
# protocol.summary: NCI tumour cell line growth inhibition, 48 h
Please use 1 whenever TGI is not below 40 µM, and 0 whenever it is.

1. CC1=NC(C)=C(/C(C)=N/NC(=O)c2ccccc2O)C(C)/C1=C(/C)NNC(=O)c1ccccc1O (centres undefined); 1
2. CC(=O)N(N=O)c1ccc(N(N=O)C(C)=O)cc1; 1
3. Cc1cc(C)c([I+]c2c(C)cc(C)cc2C)c(C)c1; 0
4. CCCNC(=O)Cn1c2c(c3ccccc31)CCCC2; 1
5. CC1(C)CC[C@]2(C)[C@@H](O)C[C@]3(C)C(=CC[C@@H]4[C@@]5(C)CC[C@H](O)C(C)(C)[C@@H]5CC[C@]43C)[C@@H]2C1; 1
6. CC1(C)CC[C@]2(C(=O)NCCNCCN)CC[C@]3(C)C(=CC[C@@H]4[C@@]5(C)CCC(=O)C(C)(C)[C@@H]5CC[C@]43C)[C@@H]2C1; 0
7. COc1ccc2nc(N/N=C/c3ccc(C)s3)cc(C)c2c1; 1
8. O=C(CSc1nc2ccc(I)cc2c(=O)n1Cc1ccccc1)NNC(=S)Nc1ccccc1; 1

====

# System: SF-539 CNS
# protocol.summary: NCI tumour cell line growth inhibition, 48 h
# Lookup of reported TGI keyed by entry
property.name: TGI

1) CCCCCCCCCCCCCC(=O)OCC(CCS(=O)(=O)O[C@H]1CC[C@@]2(C)C(=CC[C@@H]3C2CC[C@]2(C)C(=O)CCC32)C1)OC(=O)CCCCCCCCCCCCC (stereo not given in full); > 100 µM
2) COc1nc2c(c(=O)[nH]1)N=C(c1ccccc1)CC(c1ccccc1)N2 (stereo not given); > 100 µM
3) CCCCCCCCCCNC(=S)OC; > 100 µM
4) COc1ccc(-c2oc3ncnc(N)c3c2-c2ccc(NC(=O)Nc3cc(C(F)(F)F)ccc3F)cc2)cc1; 5.41 µM
5) CN(CCO)CCC1COc2ccccc2O1 (stereo not given); > 10 µM

====

# Test system: RPMI-8226 leukemia
# protocol.summary: NCI tumour cell line growth inhibition, 48 h
property.name: TGI

1) CC(C)(C)OC(=O)NC(Cc1ccccc1)C(=S)N1CCCC1 (stereo unspecified); 98 µM
2) NC(=O)c1ccc(I)c([N+](=O)[O-])c1; > 100 µM
3) CO/S(=N/S(=O)(=O)c1ccccc1)c1ccccc1[N+](=O)[O-] (stereo unspecified); > 100 µM
4) CCCC[C@H](CCc1ccccc1)N(C(=O)OC)N1CCC[C@H]1COC; > 100 µM
5) [Mn+3].[O-][Cl+3]([O-])([O-])O.[O-]c1ccccc1C=NCCN1CC1.[O-]c1ccccc1C=NCCN1CC1; 9.91 µM
6) CC1CCCc2c1n[nH]c2CC1CC(=O)NC(=O)C1 (stereo unspecified); > 100 µM
7) O=c1cccccc1O; > 100 µM
8) O=C(NC1CCCCC1)NC12CC3CC(CC(F)(C3)C1)C2; > 100 µM
9) C/C(=N\NC(=O)c1ccccc1O)c1c(O)cc(C)oc1=O; > 100 µM
10) COc1cccc(/C=C2\N=C(Cl)OC2=O)c1O; > 100 µM
11) C=CC(=C)CCC(Br)C(C)(C)Br (stereo unspecified); > 100 µM

====

# Lookup of reported TGI keyed by entry
# Test system: LOX IMVI melanoma
# protocol.summary: NCI tumour cell line growth inhibition, 48 h
property.name: TGI (µM)

1) COc1ccc(NC(=O)c2ccc(C(F)(F)F)nc2Nc2ccc(Cl)cc2C)cc1Cl; 13.5
2) O=C(Nc1ccc(Cl)cc1)c1cc(NCc2cc(O)ccc2O)ccc1O; 23.1
3) CCCCC1Nc2ccccc2-c2ccnc(Cl)c21 (stereo not given); 34.7
4) COc1ccc2c(c1)C(=O)/C(=C/c1ccc(O)cc1)O2; 14
5) N[C@@H](Cc1c[nH]c2ccccc12)C(=O)NC1CCN(Cc2c[nH]c3ccc(Cl)cc23)CC1; 8.95

====

# Tested on: PC-3 prostate
# protocol.summary: NCI tumour cell line growth inhibition, 48 h
# Lookup of reported TGI keyed by entry
property.name: TGI

1) COc1c(O)cc2c(c1O)C(=O)C(Cc1ccc(O)cc1)CO2 (stereo not given); > 100 µM
2) CC(C)(C)n1[nH]c(=O)n(C(C)(C)C)c1=O; > 100 µM
3) CCCCNC(=O)Oc1ccc(/C(=C(\C)c2ccc(OC)cc2)c2ccc(OCCN3CCCCC3)cc2)cc1; 7.03 µM
4) COc1ccc2nc(N/N=C/c3ccc(C)s3)cc(C)c2c1; 35.9 µM
5) NS(=O)(=O)c1ccc(N=Nc2ccc(O)cc2)cc1; > 100 µM
6) COc1cc(/C=C2\C[C@H]3[C@@H]4CC=C5C[C@@H](O)CC[C@]5(C)[C@H]4CC[C@]3(C)[C@H]2O)ccc1OCCN1CCCCC1; 7.01 µM
7) COc1ccc2c(c1)C(=O)c1c-2n(CCCN=[N+]=[N-])c(=O)c2cc([N+](=O)[O-])ccc12; > 100 µM
8) COc1ccc(/C(=N/OCCCC(=O)O)c2cccs2)cc1; > 100 µM
9) OCC#Cc1ccccc1C#Cc1ccc(C#Cc2ccccc2C#CCO)cc1; > 100 µM
10) CCOP(=O)(OCC)/C(=C\n1ccc(=O)[nH]c1=S)C(=O)OC; > 100 µM
